Measured values drawn from paper PMC4080980 for this set.

# measurement-notes: Serum pharmacokinetics after 500 mg oral bolus of 13C5-C3G (HPLC-ESI-MS/MS, non-compartmental analysis)
# Assay type: in vivo, humans
# test-parameters: serum; trapezoidal rule; single 500 mg oral 13C5-C3G; mean ± SEM
result-type: AUC0-48 (µM·h)

// worked examples, AUC0-48 included
O=C(O)c1ccc(OC2OC(C(=O)O)C(O)C(O)C2O)c(O)c1 (stereo not shown) [PCA-4-glucuronide] ... 0.618
COc1cc(C(=O)O)ccc1OC1OC(C(=O)O)C(O)C(O)C1O (stereo not shown) [VA-4-glucuronide] ... 0.074

(A) COc1ccc(C(=O)O)cc1OC1OC(C(=O)O)C(O)C(O)C1O (stereo not shown) [IsoVA-3-glucuronide]
(B) COc1ccc(C(=O)O)cc1O
Inquiry: Identify the entry with the smaller AUC0-48: A or B . In your reply, give the label of the chosen option.
Reply text: A
(A: 0.103 µM·h, B: 0.189 µM·h)
